# targetSystem: Galanin receptor type 3 (Homo sapiens) (UniProt O60755)
# Sequence (O60755 1-299 limits assumed): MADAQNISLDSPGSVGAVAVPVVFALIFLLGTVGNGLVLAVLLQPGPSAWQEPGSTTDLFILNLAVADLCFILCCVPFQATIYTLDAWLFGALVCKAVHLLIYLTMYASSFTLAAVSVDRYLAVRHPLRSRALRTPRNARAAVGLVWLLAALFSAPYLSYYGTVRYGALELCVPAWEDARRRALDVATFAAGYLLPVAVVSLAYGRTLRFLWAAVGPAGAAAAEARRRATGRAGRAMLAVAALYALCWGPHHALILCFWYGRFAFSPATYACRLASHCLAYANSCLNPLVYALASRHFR
# protocolText: GalR3 antagonists in HEK293 cells, primary screen, cell-based, fluorescence readout (AID 651719);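 note: forskolin and galanin both at EC90 stimulate the cells; cAMP rise reported by CNG channel membrane potential dye signal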
# conditionContext: HEK293 GalR3-CNG cAMP membrane potential fluorescence; at 3 µM; galR3 body fused to GalR1 C-terminus
The whole screen tested about 360,000 compounds, of which about 1,600 (0.44%) were called active.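 Rule for the calls: active = inhibition above the screen-wide average plus 3 SD (cut at about 13% in these data); inactive = the rest.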 This is one part of a sample in which actives are shown more often than they occur.
Log the outcome using a class from True = active, False = inactive

Take a look at these entries with their results.
# compound, cat
rows = [
    ("N#Cc1c(N)nc2c3c(sc(=N)c2c1N)NC(=O)CC3c1ccccc1Cl (centres undefined)", "True"),
    ("COC(=O)[C@]12C[C@H](CC(=O)NCCc3ccccc3OC)C(=O)N(Cc3ccccc3)C1=C[C@H](C(C)C)O[C@@H]2C1CC1", "False"),
    ("O=C(NCc1ccccc1)[C@@H]1CCCN1C(=O)[C@@H](NS(=O)(=O)c1ccc(F)cc1F)C1CCCCC1", "False"),
]

Now consider a different compound.
Qu. State the result this test recorded for CC(C)[C@H]1COCCS(=O)(=O)N1Cc1ccccc1-c1cccc2c1sc1ccccc12 .
Ans. False
